- Measurement Description: in vivo
- Experimental Context: rat, mouse, cat
Readout Type: LD50

Name the recorded LD50 for CC(=O)Oc1cccc2c1C(=O)c1c(OC(C)=O)cc(C(=O)O)cc1C2=O [diacetylrhein, Diacetylrhein] .
119 to 339 mg/kg

====

- Measurement Description: in vivo
- Experimental Context: rat, mouse, cat, po
Readout Type: LD50

Name the recorded LD50 for CC(=O)Oc1cccc2c1C(=O)c1c(OC(C)=O)cc(C(=O)O)cc1C2=O .
1900 to 7900 mg/kg
